Reported TGI values for a set of compounds
tested on: KM12 colon; test: NCI tumour cell line growth inhibition, 48 h

Past entries and their recorded results:
COc1ccc(NC(=O)CC/C(CC(=O)C(C)(C)C)=N\NC(=O)C(=O)NN)cc1 | > 100 µM
CC(=O)OC1CCn2nnc(CO)c21 (configuration not stated) | > 100 µM
N#CC1C(=O)SC2c3ccccc3C(=O)c3ccccc3C12 (configuration not stated) | > 10 µM
CC(=C/C=C/C=C(C)\C=C\C=C(\C)C(=O)O)/C=C/C=C(/C)C(=O)O | > 100 µM

Find the recorded TGI belonging to c1ccc2c(NCCCCCCNc3c4ccccc4nc4ccccc34)c3ccccc3nc2c1 and report it.
1.81 µM

Find the recorded TGI belonging to COc1cccc2c1CCc1cc3c(N)nc(N)nc3nc1-2 and report it.
37.5 µM

Find the recorded TGI belonging to COc1cc2cc3c4cc(OC)c(OC)cc4cc[n+]3cc2cc1OC and report it.
> 100 µM

----------
test system: HCT-116 colon; assay: NCI tumour cell line growth inhibition, 48 h; in the data active = GI50 below about 0.43 µM; inactive = the rest
// one of yes (1) (active), no (0) (inactive), no free text

Examples with answers:
O=c1cc(N2CCN(CCCCCOc3cc(O)c4c(=O)cc(-c5ccccc5)oc4c3)CC2)c2ccccc2o1 | no (0)
C=C(C)[C@@H]1CC[C@]2(C(=O)O)CC[C@]3(C)[C@H](CC[C@@H]4[C@@]5(C)CCC(NC(=O)c6cccc(OC(C)=O)c6OC(C)=O)C(C)(C)[C@@H]5CC[C@]43C)[C@@H]12 (some centres undefined) | yes (1)
CC(=O)[CH-]C(=O)c1ccccc1.CC(=O)[CH-]C(=O)c1ccccc1.CC(C)CCCC(C)[C@H]1CCC2[C@@H]3CC=C4C[C@@H]([O-])CC[C@]4(C)C3CC[C@@]21C.CC(C)CCCC(C)[C@H]1CCC2[C@@H]3CC=C4C[C@@H]([O-])CC[C@]4(C)C3CC[C@@]21C.[Ti+4] (some centres undefined) | no (0)

Shifting focus to the compound that follows.
Hey, what did the test say about c1cc(N2CCCN(c3ccc(C4=NCCCN4)cc3)CC2)ccc1C1=NCCCN1 ?
no (0)

----------
Reported GI50 values for a set of compounds
system: KM12 colon; assay: NCI tumour cell line growth inhibition, 48 h

Past entries and their recorded results:
CCN(Cc1ccccc1)c1ccc(CO)c(Cl)c1 | 20.5 µM
O=c1cc(N2CCN(CCCCCOc3cc(O)c4c(=O)cc(-c5ccccc5)oc4c3)CC2)c2ccccc2o1 | 77.8 µM

Proceeding to the next compound to report its GI50.
Find the recorded GI50 belonging to COC(=O)CC[C@]1(C)O[C@H]2[C@H]([C@@H](C)CCCC(C)=O)OC(=O)[C@@H]2C[C@H]1O and report it.
> 100 µM

----------
tested on: SW-620 colon; assay: NCI tumour cell line growth inhibition, 48 h
Reported TGI values for a set of compounds

Past entries and their recorded results:
COc1ccc(P2(=S)Oc3ccccc3-c3ccccc3O2)cc1 | > 100 µM
COc1ccc(-c2c3c(cc4cc5c(cc24)OCO5)C(=O)OC3)cc1OC | 11.7 µM
Cc1nc(C(N)=S)sc1C(=O)CC(=O)C(=O)Nc1ccccc1[N+](=O)[O-] | > 100 µM
Clc1ccc(OCc2nnc(CCCCCCCCc3nnc(COc4ccc(Cl)cc4Cl)n3Nc3ccccc3)n2Nc2ccccc2)c(Cl)c1 | > 62.6 µM
Cc1cccc2c1C(=O)[C@](C)([C@]1(C)Nc3cccc(C)c3C1=O)N2 | > 100 µM
O=C1O/C(=C\c2ccccc2)N(c2ccccc2)C1=O | > 100 µM
C=C(CN1CCN(c2cccc(C(F)(F)F)n2)CC1)c1ccc(C(=O)Nc2ccccc2N)cc1 | > 100 µM
COC(=O)c1ccc(NC(=O)O/N=C(\Cl)C(C)C)cc1 | 3.77 µM
CC(C)(Oc1ccccc1)C(=O)Sc1c(-c2ccccc2)c(=O)n(-c2ccccc2)c(=S)n1-c1ccccc1 | > 100 µM
COc1ccc(-c2oc(=O)ccc2-c2cc(OC)c(OC)c(OC)c2)cc1O | > 47.6 µM

Provide the documented TGI with SW-620 colon as the system for CCn1c(SCC(=O)N/N=C/c2ccccc2)nc2ccccc2c1=O
> 100 µM

Provide the documented TGI with SW-620 colon as the system for COc1cc(/C=C2\N=C(c3ccccc3)N(c3nc4cc(C)c(C)cc4s3)C2=O)ccc1O
> 100 µM

Provide the documented TGI with SW-620 colon as the system for CC(=O)OC[C@]1(C)CCCC2(C)C1CCC1C=C(C)[C@H]3CCC12C3 (stereo partly drawn)
> 100 µM

----------
system: KM12 colon; experiment: NCI tumour cell line growth inhibition, 48 h
MEASUREMENT TYPE: TGI

Past entries and their recorded results:
COc1cc(C2SCC(=O)N2c2ccc(-n3c(-c4ccccc4)nc4ccccc4c3=O)cc2)cc(OC)c1OC (stereo not drawn) | > 100 µM
O=S(CC1(O)CCCCC1)c1ccccc1 (stereo not drawn) | > 100 µM

Proceeding to the next compound to report its TGI.
Provide the documented TGI with KM12 colon as the system for CC(=O)[C@@H]1C/C(=C\OCc2ccccc2)O[C@H]1C
> 100 µM

----------
test system: OVCAR-5 ovarian; test: NCI tumour cell line growth inhibition, 48 h; in the data active = GI50 below about 0.43 µM; inactive = the rest
// one of active, inactive, no free text

Examples with answers:
NC1CCC(Nc2nc(NCc3ccc(-c4ccccc4O)nc3)c3ncn(C4CCCC4)c3n2)CC1 (stereo not drawn) | active
O=C(O)c1ccc(Oc2nccc(-c3c(-c4ccc(F)cc4)ncn3C3CCNCC3)n2)cc1 | inactive
N#CC1=C(N)Oc2c(ccc3ccccc23)C1c1ccccc1 (stereo not drawn) | active

Hey, what did the test say about C=C1C(=O)O[C@H]2[C@H]1CC/C(COC(=O)c1cc3ccccc3o1)=C\CC[C@@]1(C)O[C@@H]21 ?
inactive

Hey, what did the test say about C=C(NC(=O)C(=C)NC(=O)c1csc(C2=NC3c4csc(n4)C4NC(=O)c5csc(n5)C(C(C)(O)C(C)O)NC(=O)C5CSC(=N5)C(=CC)NC(=O)C(C(C)O)NC(=O)c5csc(n5)C3(CC2)NC(=O)C(C)NC(=O)C(=C)NC(=O)C(C)NC(=O)C(C(C)CC)NC2C=Cc3c(C(C)O)cc(nc3C2O)C(=O)OC4C)n1)C(N)=O (stereo not drawn) ?
inactive

Hey, what did the test say about COc1ccc(-c2cc(-c3cccn3C)c(C#N)c(=O)[nH]2)cc1OC ?
inactive

Hey, what did the test say about C[C@]12CC[C@H](OC3OC(CO)C(O)C(O)C3O)C[C@H]1CC[C@@H]1[C@@H]2CC[C@]2(C)[C@@H](C3=CCOC3=O)CC[C@]12O (stereo partly drawn) ?
inactive

Hey, what did the test say about O=c1cc(N2CCN(CCCCCOc3cc(O)c4c(=O)cc(-c5ccccc5)oc4c3)CC2)c2ccccc2o1 ?
inactive

Hey, what did the test say about Cc1nc2sc(C(=O)Nc3cccc4ccccc34)c(N)c2cc1C(O)c1ccccc1 (stereo not drawn) ?
active

Hey, what did the test say about c1cc(N2CCCN(c3ccc(C4=NCCCN4)cc3)CC2)ccc1C1=NCCCN1 ?
inactive

Hey, what did the test say about CNC(=S)NC(=O)c1c(Cl)n(C(=O)OC(C)(C)C)c2ccccc12 ?
inactive

Hey, what did the test say about O=C1NC(=O)C(c2ccccc2Cl)=C1Nc1cc(Cl)c(O)c(Cl)c1 ?
inactive

Hey, what did the test say about Cc1c2c(cc[n+]1Cc1ccccc1)c1ccc(OCc3ccccc3)cc1n2Cc1ccccc1 ?
inactive

----------
Reported TGI values for a set of compounds
test system: TK-10 renal; experiment: NCI tumour cell line growth inhibition, 48 h

Past entries and their recorded results:
c1cc(N2CCCN(c3ccc(C4=NCCCN4)cc3)CC2)ccc1C1=NCCCN1 | > 100 µM
Cc1nc2sc(C(=O)Nc3cccc4ccccc34)c(N)c2cc1C(O)c1ccccc1 (stereo not drawn) | > 91.5 µM
COC(=O)c1ccccc1C1CN=NC12Cc1ccccc1C2=O (stereo not drawn) | > 100 µM
O=C(O)c1ccc(Oc2nccc(-c3c(-c4ccc(F)cc4)ncn3C3CCNCC3)n2)cc1 | > 25 µM
C#CCOCn1cnc2c(Sc3c([N+](=O)[O-])ncn3C)ncnc21 | > 100 µM
CC(C)C[C@H](NC(=O)Cn1ccc(NCc2ccccc2)cc1=O)B(O)O | 5.23 µM

Find the recorded TGI belonging to c1ccc(N=C(Nc2ccccc2)N2CCCC2)cc1 and report it.
> 100 µM

Find the recorded TGI belonging to CC1CN=C(Nc2ccccc2)S1 (stereo not drawn) and report it.
> 100 µM

----------
system: SN12C renal; assay: NCI tumour cell line growth inhibition, 48 h
MEASUREMENT TYPE: GI50

Find the recorded GI50 belonging to Cc1cc(-c2nc3sccn3c2/C=N/N=C(N)N)c(C)s1 and report it.
15.7 µM

Find the recorded GI50 belonging to CC1=C(C(=O)Nc2ccc(Cl)c(Cl)c2)C(c2cccc(Cl)c2)NC(=O)N1 (stereo not drawn) and report it.
8.53 µM

Find the recorded GI50 belonging to CCC(=O)Nc1ccccc1C#C/C=C\C#Cc1ccccc1SC and report it.
26.7 µM
